B1: INTS4 (parent)
chain: YSSGEFSSGRKWGDDAPKEEVDTG

- Variants of: B1
- experiment.description: protein stability index of a GFP-peptide fusion (GPS, HEK-293T) (PSI 1-6); higher = more stable;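 further: lentivirally expressed fusions sorted by FACS into six bins by GFP to DsRed ratio, PSI derived from sequencing read proportions per bin multiplied by bin number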
- run.parameters: c terminus: a fixed tail appended
Quick reference for protein stability index among some variants

# mutation, protein stability index
records = [
    ("D15K", 2.18),
    ("K18S", 3.16),
    ("S2P", 2.31),
    ("S2A", 2.28),
    ("D14V", 2.01),
]

Ask: For the variant G4V , what protein stability index is on record?
Result: 3.87

Ask: Next up: W12M
Result: 2.85
